TGT: Programmed cell death protein 1/Programmed cell death 1 ligand 1 (Homo sapiens)
ASSAY SUMMARY: Inhibition of PD1/PDL1 protein-protein interaction in human Jurkat cells overexpressing PD1 co-cultured with human Hep3B cells expressing PDL1 protein assessed as increase of TCR-mediated luminiscence measured after 6 hrs by NFAT reporter assay
MEASURED ENDPOINT: EC50 (nM)
Please state the figure in nM; there is no need to write the unit.

Some solved entries appear below for comparison.
COc1cc(-c2cccc(-c3cccc(-c4ccc(CN5CC(C(=O)O)C5)c(OC)c4)c3C)c2C)ccc1CN1CC(C(=O)O)C1	104
COc1cc(-c2cccc(-c3cccc(-c4ccc(CNCC(O)C(=O)O)c(OC)c4)c3C)c2C)ccc1CNCC(O)C(=O)O (stereo not drawn)	376

Shift focus to the following entry.
# assay system Programmed cell death protein 1/Programmed cell death 1 ligand 1 (Homo sapiens): give EC50 of COc1cc(-c2cccc(-c3cccc(-c4ccc(CNC(CO)C(=O)O)c(OC)c4)c3C)c2C)ccc1CNC(CO)C(=O)O (stereo not drawn)
775

* * *

TGT: hERG (KCNH2) (Homo sapiens)
Sequence (Q12809 whole entry): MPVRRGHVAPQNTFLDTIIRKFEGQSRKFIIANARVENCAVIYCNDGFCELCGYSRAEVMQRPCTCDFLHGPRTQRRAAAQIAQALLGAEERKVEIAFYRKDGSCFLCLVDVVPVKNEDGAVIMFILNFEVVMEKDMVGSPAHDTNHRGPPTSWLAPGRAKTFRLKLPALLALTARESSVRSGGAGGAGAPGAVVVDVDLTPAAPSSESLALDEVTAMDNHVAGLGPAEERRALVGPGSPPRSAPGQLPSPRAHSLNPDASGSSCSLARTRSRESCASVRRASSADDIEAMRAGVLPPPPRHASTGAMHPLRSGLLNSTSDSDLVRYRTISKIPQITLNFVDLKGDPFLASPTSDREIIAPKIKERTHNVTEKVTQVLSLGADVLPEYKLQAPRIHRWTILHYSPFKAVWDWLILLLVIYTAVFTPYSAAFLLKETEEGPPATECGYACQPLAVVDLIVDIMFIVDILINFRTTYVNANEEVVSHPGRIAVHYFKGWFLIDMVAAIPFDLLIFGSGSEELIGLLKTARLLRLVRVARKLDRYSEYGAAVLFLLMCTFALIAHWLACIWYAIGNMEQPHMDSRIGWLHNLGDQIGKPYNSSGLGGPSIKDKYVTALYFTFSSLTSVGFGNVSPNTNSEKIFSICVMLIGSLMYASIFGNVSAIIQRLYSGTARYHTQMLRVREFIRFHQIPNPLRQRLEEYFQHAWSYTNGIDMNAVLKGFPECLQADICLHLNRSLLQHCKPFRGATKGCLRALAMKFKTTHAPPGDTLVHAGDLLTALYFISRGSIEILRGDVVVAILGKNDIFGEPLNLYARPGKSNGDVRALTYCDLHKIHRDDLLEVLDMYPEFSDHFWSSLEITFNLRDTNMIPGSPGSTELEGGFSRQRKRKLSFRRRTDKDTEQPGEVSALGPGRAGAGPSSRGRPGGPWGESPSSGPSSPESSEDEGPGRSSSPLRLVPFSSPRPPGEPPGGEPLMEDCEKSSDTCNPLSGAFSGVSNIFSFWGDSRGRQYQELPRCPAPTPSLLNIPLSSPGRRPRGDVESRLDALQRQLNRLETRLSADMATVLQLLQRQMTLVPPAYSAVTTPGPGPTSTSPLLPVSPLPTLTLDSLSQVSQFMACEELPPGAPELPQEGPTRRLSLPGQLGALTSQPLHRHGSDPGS
ASSAY SUMMARY: Inhibition of human ERG expressed in HEK293 cells at 10 uM measured by whole cell patch-clamp assay
Assay type: cell-based
DETAILS: HEK293 cells that express hERG
# inhibition at 10 µM values compiled below
Please state the figure in %; there is no need to write the unit.

Some solved entries appear below for comparison.
COc1cc(-c2cccc(-c3cccc(-c4ccc(CNC(CO)C(=O)O)c(OC)c4)c3C)c2C)ccc1CNC(CO)C(=O)O (stereo not given)	-0.67
COc1cc(-c2cccc(-c3cccc(-c4ccc(CN5CC(C(=O)O)C5)c(OC)c4)c3C)c2C)ccc1CN1CC(C(=O)O)C1	3.93
COc1cc(-c2cccc(-c3ccc4c(c3)OCCO4)c2C)ccc1CNCCO	4.71
Cc1c(-c2ccc(CNCCO)cc2)cccc1-c1ccc2c(c1)OCCO2	98

Shift focus to the following entry.
Read the entry COc1cc(-c2cccc(-c3cccc(-c4ccc(CNCC(O)C(=O)O)c(OC)c4)c3C)c2C)ccc1CNCC(O)C(=O)O (stereo not given) and write its reported inhibition at 10 µM.
7.72

* * *

# pIC50 values compiled below
TGT: Programmed cell death protein 1/Programmed cell death 1 ligand 1 (Homo sapiens, UniProt Q9NZQ7)
Sequence (Q15116 whole entry): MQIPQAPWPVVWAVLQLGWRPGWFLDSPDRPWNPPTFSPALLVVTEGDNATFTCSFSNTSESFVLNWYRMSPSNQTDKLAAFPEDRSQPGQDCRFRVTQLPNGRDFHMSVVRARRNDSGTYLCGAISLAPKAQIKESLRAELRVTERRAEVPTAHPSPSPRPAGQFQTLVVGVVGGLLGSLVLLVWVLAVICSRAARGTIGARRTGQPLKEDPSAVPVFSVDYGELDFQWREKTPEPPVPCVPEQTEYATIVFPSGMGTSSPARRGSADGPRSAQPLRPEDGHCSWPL
Sequence (Q9NZQ7 whole entry): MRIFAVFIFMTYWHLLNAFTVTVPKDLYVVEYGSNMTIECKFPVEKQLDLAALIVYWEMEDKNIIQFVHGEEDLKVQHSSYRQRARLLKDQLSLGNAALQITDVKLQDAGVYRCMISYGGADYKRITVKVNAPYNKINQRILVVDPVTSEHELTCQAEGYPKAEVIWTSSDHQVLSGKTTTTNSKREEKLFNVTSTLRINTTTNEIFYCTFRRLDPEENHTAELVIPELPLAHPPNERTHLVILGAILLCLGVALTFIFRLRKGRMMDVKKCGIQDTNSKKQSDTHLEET
ASSAY SUMMARY: Inhibition of Tag2-PD1/Tag1-PD-L1 (unknown origin) protein-protein interaction preincubated for 15 mins followed by addition of anti-Tag1-Eu3+ and anti-Tag2-XL665 measured after 2 hrs in dark by HTRF assay
pIC50: −log10 of the molar value.

Some solved entries appear below for comparison.
Cc1c(-c2ccc3c(c2)OCCO3)cccc1N1CCN(c2cccc(CNCCO)n2)C1=O	< 6.00
Cc1c(-c2ccc3c(c2)OCCO3)cccc1N1Cc2cc(CNCCO)ccc2C1=O	< 6.00
Cc1c(NC(c2ccc(CNCCO)cc2)C(F)(F)F)cccc1-c1ccc2c(c1)OCCO2 (centres undefined)	< 6.00
COc1cc(-c2cccc(-c3cccc(-c4ccc(CNC(CO)CO)c(OC)c4)c3C)c2C)ccc1CNC(CO)CO	< 6.00
O=C(c1ccc(CNCCO)cc1)N1CCCc2c(-c3ccc4c(c3)OCCO4)cccc21	< 6.00
Cc1c(Nc2cc(-c3ccc(CNCCO)cc3)ccn2)cccc1-c1ccc2c(c1)OCCO2	< 6.00
Cc1c(NC(=O)c2ccc(CNCCO)nc2)cccc1-c1ccc2c(c1)OCCO2	< 6.00
Cc1c(-c2ccc(CNCCO)cn2)cccc1-c1cccc(-c2ccc(CNCCO)cn2)c1C	< 6.00

Read the entry Cc1c(C(=O)Nc2ccc(CNCCO)cc2)cccc1-c1ccc2c(c1)OCCO2 and write its reported pIC50.
< 6.00
